# Test system: Erythrocyte
# MEASUREMENT_PROTOCOL: Hemolytic activity in human RBC incubated for 4 hrs by visual analysis
# Format: toxicity, cell-based
Exercise: state measured MHC for each of the substances provided.
Report the figure in µg/mL without appending any unit label.

Data request: Write down the reported MHC of H-KKIIKIIKIII-NH2 , test system: Erythrocyte.
Data returned: 62.5

Data request: Write down the reported MHC of H-RRIIRIIRIII-NH2 , test system: Erythrocyte.
Data returned: 62.5

Data request: Write down the reported MHC of H-RRLLRLLRLLL-NH2 , test system: Erythrocyte.
Data returned: 15.6

* * *

# System: Erythrocyte
# MEASUREMENT_PROTOCOL: Hemolytic activity in human RBC incubated for 4 hrs by visual analysis
# Type: toxicity, cell-based
Non-standard residues stand in square brackets, D forms with d. Residues, ends and D or L forms follow the SMILES beside them.
Exercise: state measured MHC for each of the compounds provided.
Report the figure in µg/mL without appending any unit label.

Data request: Which MHC reading was recorded for the compound CC(C)C[C@@H](NC(=O)[C@@H](CC(C)C)NC(=O)[C@@H](CC(C)C)NC(=O)[C@@H](CCCCN)NC(=O)[C@@H](CC(C)C)NC(=O)[C@@H](CC(C)C)NC(=O)[C@@H](CCCCN)NC(=O)[C@@H](CC(C)C)NC(=O)[C@@H](CC(C)C)NC(=O)[C@@H](CCCCN)NC(=O)[C@H](N)CCCCN)C(N)=O ?
Data returned: 125

Data request: Which MHC reading was recorded for the compound CC[C@H](C)[C@H](NC(=O)[C@@H](NC(=O)[C@@H](NC(=O)[C@@H](CCCNC(=N)N)NC(=O)[C@@H](NC(=O)[C@@H](NC(=O)[C@@H](CCCNC(=N)N)NC(=O)[C@@H](NC(=O)[C@@H](NC(=O)[C@@H](CCCNC(=N)N)NC(=O)[C@H](N)CCCNC(=N)N)[C@@H](C)CC)[C@@H](C)CC)[C@@H](C)CC)[C@@H](C)CC)[C@@H](C)CC)[C@@H](C)CC)C(N)=O (H-[dR][dR]II[dR]II[dR]III-NH2) ?
Data returned: 250
